tested on: KRAS-mutant PDC tumor spheroid with HUVEC/MSC, viability; experiment: Anticancer human tumor 327498-153-R-J2-PDC patient-derived uterine carcinosarcoma cell line growth inhibition [KRAS2]; settings: second compound 3.16 µM; first compound 3.16 µM; active compounds read low;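 also: spheroids exposed to agents for seven days before reading; 100% = DMSO vehicle wells so lower means fewer viable cells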
VALUE_TYPE: viability, T/C (%)
One number for each entry, in %.

| MOLECULE | UNIT_SPEC | TEST_RESULT |
| --- | --- | --- |
| CC(C)NCC(C(=O)N1CCN(c2ncnc3c2C(C)CC3O)CC1)c1ccc(Cl)cc1 (centres undefined) + C=CC(=O)N1CCN(c2nc(OCC3CCCN3C)nc3c2CCN(c2cccc4cccc(C)c24)C3)CC1CC#N | % | 0.14 |
| CC1OCC2(CCN(c3cnc(Sc4ccnc(N)c4Cl)c(N)n3)CC2)C1N (centres undefined) + COc1cc2nc(C)nc(NC(C)c3cc(N)cc(C(F)(F)F)c3)c2cc1OC1CCOC1 | % | 23.5 |
| COC(=O)c1ccc2c(C(=Nc3ccc(N(C)C(=O)CN4CCN(C)CC4)cc3)c3ccccc3)c(O)[nH]c2c1 + COc1cc2nc(C)nc(NC(C)c3cc(N)cc(C(F)(F)F)c3)c2cc1OC1CCOC1 | % | 19.9 |
| CCNC(=O)CC1N=C(c2ccc(Cl)cc2)c2cc(OC)ccc2-n2c(C)nnc21 (centres undefined) + COc1cc2nc(C)nc(NC(C)c3cc(N)cc(C(F)(F)F)c3)c2cc1OC1CCOC1 | % | 20.6 |

Below is a list of molecules. For each, state its recorded viability, T/C.
1. CC(C)NCC(C(=O)N1CCN(c2ncnc3c2C(C)CC3O)CC1)c1ccc(Cl)cc1 (centres undefined) + COc1cc2nc(C)nc(NC(C)c3cc(N)cc(C(F)(F)F)c3)c2cc1OC1CCOC1
2. CC(=O)OC12COC1CC(O)C1(C)C(=O)C(O)C3=C(C)C(OC(=O)C(O)C(NC(=O)OC(C)(C)C)c4ccccc4)CC(O)(C(OC(=O)c4ccccc4)C21)C3(C)C (centres undefined) + COc1cc2nc(C)nc(NC(C)c3cc(N)cc(C(F)(F)F)c3)c2cc1OC1CCOC1
3. CC1(C)CCC(CN2CCN(c3ccc(C(=O)NS(=O)(=O)c4ccc(NCC5CCOCC5)c([N+](=O)[O-])c4)c(Oc4cnc5[nH]ccc5c4)c3)CC2)=C(c2ccc(Cl)cc2)C1 + C=CC(=O)N1CCN(c2nc(=O)n(-c3c(C)ccnc3C(C)C)c3nc(-c4c(O)cccc4F)c(F)cc23)C(C)C1

Response given:
1. 8.44
2. 12.6
3. 37.4
